- experiment_summary: Absorption property of the compound in DMSO assessed as Q band absorption coefficient by UV-visible spectrophotometric method
- Type: physicochemical
property_label: Activity

Below, each entry is followed by its recorded Activity result.
smiles_repr | Activity
Cc1ccc(-c2c3nc(c(-c4ccc(C)cc4)c4ccc([nH]4)c(-c4ccc(C)cc4)c4nc(c(-c5ccc(C)cc5)c5ccc2[nH]5)C=C4N2CCCC2)C=C3)cc1 | 0.58 10^4/M/cm
C1=Cc2nc1c(-c1ccccc1)c1ccc([nH]1)c(-c1ccccc1)c1nc(c(-c3ccccc3)c3ccc([nH]3)c2-c2ccccc2)C(N2CCOCC2)=C1 | 0.69 10^4/M/cm
C1=Cc2nc1c(-c1ccccc1)c1ccc([nH]1)c(-c1ccccc1)c1nc(c(-c3ccccc3)c3ccc([nH]3)c2-c2ccccc2)C(N2CCCC2)=C1 | 0.44 10^4/M/cm
COc1ccc(-c2c3nc(c(-c4ccc(OC)cc4)c4ccc([nH]4)c(-c4ccc(OC)cc4)c4nc(c(-c5ccc(OC)cc5)c5ccc2[nH]5)C=C4N2CCCC2)C=C3)cc1 | 0.68 10^4/M/cm
Clc1ccc(-c2c3nc(c(-c4ccc(Cl)cc4)c4ccc([nH]4)c(-c4ccc(Cl)cc4)c4nc(c(-c5ccc(Cl)cc5)c5ccc2[nH]5)C=C4N2CCCC2)C=C3)cc1 | 0.73 10^4/M/cm

Let us move to another entry and its Activity.
Entry `C1=Cc2nc1c(-c1ccccc1)c1ccc([nH]1)c(-c1ccccc1)c1nc(c(-c3ccccc3)c3ccc([nH]3)c2-c2ccccc2)C(N2CCCCC2)=C1` has what Activity?
0.27 10^4/M/cm

* * *

Reported Activity values follow for various molecules
- experiment_summary: Absorption property of the compound in DMSO assessed as soret band maximum absorption wavelength by UV-visible spectrophotometric method
- Type: physicochemical
Give a bare numeral; the unit nm is implied.

Below, each entry is followed by its recorded Activity result.
smiles_repr | Activity [nm]
C1=Cc2nc1c(-c1ccccc1)c1ccc([nH]1)c(-c1ccccc1)c1nc(c(-c3ccccc3)c3ccc([nH]3)c2-c2ccccc2)C(N2CCCC2)=C1 | 412
C1=Cc2nc1c(-c1ccccc1)c1ccc([nH]1)c(-c1ccccc1)c1nc(c(-c3ccccc3)c3ccc([nH]3)c2-c2ccccc2)C(N2CCCCC2)=C1 | 412
C1=Cc2nc1c(-c1ccccc1)c1ccc([nH]1)c(-c1ccccc1)c1nc(c(-c3ccccc3)c3ccc([nH]3)c2-c2ccccc2)C(N2CCOCC2)=C1 | 417
COc1ccc(-c2c3nc(c(-c4ccc(OC)cc4)c4ccc([nH]4)c(-c4ccc(OC)cc4)c4nc(c(-c5ccc(OC)cc5)c5ccc2[nH]5)C=C4N2CCCC2)C=C3)cc1 | 417

Entry `Clc1ccc(-c2c3nc(c(-c4ccc(Cl)cc4)c4ccc([nH]4)c(-c4ccc(Cl)cc4)c4nc(c(-c5ccc(Cl)cc5)c5ccc2[nH]5)C=C4N2CCCC2)C=C3)cc1` has what Activity?
412

Entry `Cc1ccc(-c2c3nc(c(-c4ccc(C)cc4)c4ccc([nH]4)c(-c4ccc(C)cc4)c4nc(c(-c5ccc(C)cc5)c5ccc2[nH]5)C=C4N2CCCC2)C=C3)cc1` has what Activity?
414

* * *

Reported Activity values follow for various compounds
- experiment_summary: Emission property of the compound in DMSO assessed as maximum emission wavelength at 4 uM by fluorescence spectrophotometric method
- Assay type: physicochemical
Respond with the figure and its unit, in that order.

Below, each entry is followed by its recorded Activity result.
smiles_repr | Activity
Clc1ccc(-c2c3nc(c(-c4ccc(Cl)cc4)c4ccc([nH]4)c(-c4ccc(Cl)cc4)c4nc(c(-c5ccc(Cl)cc5)c5ccc2[nH]5)C=C4N2CCCC2)C=C3)cc1 | 665 nm
C1=Cc2nc1c(-c1ccccc1)c1ccc([nH]1)c(-c1ccccc1)c1nc(c(-c3ccccc3)c3ccc([nH]3)c2-c2ccccc2)C(N2CCCCC2)=C1 | 669 nm

Let us move to another entry and its Activity.
Entry `C1=Cc2nc1c(-c1ccccc1)c1ccc([nH]1)c(-c1ccccc1)c1nc(c(-c3ccccc3)c3ccc([nH]3)c2-c2ccccc2)C(N2CCOCC2)=C1` has what Activity?
663 nm

* * *

Reported Activity values follow for various compounds
- experiment_summary: Absorption property of the compound in DMSO assessed as Q band maximum absorption wavelength by UV-visible spectrophotometric method
- Type: physicochemical
Give a bare numeral; the unit nm is implied.

smiles_repr | uom | Activity
Clc1ccc(-c2c3nc(c(-c4ccc(Cl)cc4)c4ccc([nH]4)c(-c4ccc(Cl)cc4)c4nc(c(-c5ccc(Cl)cc5)c5ccc2[nH]5)C=C4N2CCCC2)C=C3)cc1 | nm | 594
C1=Cc2nc1c(-c1ccccc1)c1ccc([nH]1)c(-c1ccccc1)c1nc(c(-c3ccccc3)c3ccc([nH]3)c2-c2ccccc2)C(N2CCOCC2)=C1 | nm | 596

Entry `C1=Cc2nc1c(-c1ccccc1)c1ccc([nH]1)c(-c1ccccc1)c1nc(c(-c3ccccc3)c3ccc([nH]3)c2-c2ccccc2)C(N2CCCCC2)=C1` has what Activity?
596

* * *

- experiment_summary: Emission property of the compound in DMSO assessed as maximum excited state emission wavelength at 4 uM by fluorescence spectrophotometric method
- Assay type: physicochemical
property_label: Activity (nm)
Give a bare numeral; the unit nm is implied.

Below, each entry is followed by its recorded Activity result.
smiles_repr | Activity [nm]
COc1ccc(-c2c3nc(c(-c4ccc(OC)cc4)c4ccc([nH]4)c(-c4ccc(OC)cc4)c4nc(c(-c5ccc(OC)cc5)c5ccc2[nH]5)C=C4N2CCCC2)C=C3)cc1 | 417
Cc1ccc(-c2c3nc(c(-c4ccc(C)cc4)c4ccc([nH]4)c(-c4ccc(C)cc4)c4nc(c(-c5ccc(C)cc5)c5ccc2[nH]5)C=C4N2CCCC2)C=C3)cc1 | 414
Clc1ccc(-c2c3nc(c(-c4ccc(Cl)cc4)c4ccc([nH]4)c(-c4ccc(Cl)cc4)c4nc(c(-c5ccc(Cl)cc5)c5ccc2[nH]5)C=C4N2CCCC2)C=C3)cc1 | 412
C1=Cc2nc1c(-c1ccccc1)c1ccc([nH]1)c(-c1ccccc1)c1nc(c(-c3ccccc3)c3ccc([nH]3)c2-c2ccccc2)C(N2CCCCC2)=C1 | 412
C1=Cc2nc1c(-c1ccccc1)c1ccc([nH]1)c(-c1ccccc1)c1nc(c(-c3ccccc3)c3ccc([nH]3)c2-c2ccccc2)C(N2CCCC2)=C1 | 412

Entry `C1=Cc2nc1c(-c1ccccc1)c1ccc([nH]1)c(-c1ccccc1)c1nc(c(-c3ccccc3)c3ccc([nH]3)c2-c2ccccc2)C(N2CCOCC2)=C1` has what Activity?
417

* * *

- experiment_summary: Absorption property of the compound in DMSO assessed as Q band wavelength molar absorption coefficient by UV-visible spectrophotometric method
- Format: physicochemical
property_label: Activity (nm)
Give a bare numeral; the unit nm is implied.

Entry `C1=Cc2nc1c(-c1ccccc1)c1ccc([nH]1)c(-c1ccccc1)c1nc(c(-c3ccccc3)c3ccc([nH]3)c2-c2ccccc2)C(N2CCCC2)=C1` has what Activity?
664

Entry `COc1ccc(-c2c3nc(c(-c4ccc(OC)cc4)c4ccc([nH]4)c(-c4ccc(OC)cc4)c4nc(c(-c5ccc(OC)cc5)c5ccc2[nH]5)C=C4N2CCCC2)C=C3)cc1` has what Activity?
668

Entry `C1=Cc2nc1c(-c1ccccc1)c1ccc([nH]1)c(-c1ccccc1)c1nc(c(-c3ccccc3)c3ccc([nH]3)c2-c2ccccc2)C(N2CCOCC2)=C1` has what Activity?
650

* * *

Reported Activity values follow for various molecules
- experiment_summary: Absorption property of the compound in DMSO assessed as Q band molar attenuation coefficient by UV-visible spectrophotometric method
- Type: physicochemical

Below, each entry is followed by its recorded Activity result.
smiles_repr | recorded_value
C1=Cc2nc1c(-c1ccccc1)c1ccc([nH]1)c(-c1ccccc1)c1nc(c(-c3ccccc3)c3ccc([nH]3)c2-c2ccccc2)C(N2CCOCC2)=C1 | 0.56 10^4/M/cm
COc1ccc(-c2c3nc(c(-c4ccc(OC)cc4)c4ccc([nH]4)c(-c4ccc(OC)cc4)c4nc(c(-c5ccc(OC)cc5)c5ccc2[nH]5)C=C4N2CCCC2)C=C3)cc1 | 0.54 10^4/M/cm
Cc1ccc(-c2c3nc(c(-c4ccc(C)cc4)c4ccc([nH]4)c(-c4ccc(C)cc4)c4nc(c(-c5ccc(C)cc5)c5ccc2[nH]5)C=C4N2CCCC2)C=C3)cc1 | 0.34 10^4/M/cm
C1=Cc2nc1c(-c1ccccc1)c1ccc([nH]1)c(-c1ccccc1)c1nc(c(-c3ccccc3)c3ccc([nH]3)c2-c2ccccc2)C(N2CCCC2)=C1 | 0.25 10^4/M/cm
Clc1ccc(-c2c3nc(c(-c4ccc(Cl)cc4)c4ccc([nH]4)c(-c4ccc(Cl)cc4)c4nc(c(-c5ccc(Cl)cc5)c5ccc2[nH]5)C=C4N2CCCC2)C=C3)cc1 | 0.67 10^4/M/cm

Let us move to another entry and its Activity.
Entry `C1=Cc2nc1c(-c1ccccc1)c1ccc([nH]1)c(-c1ccccc1)c1nc(c(-c3ccccc3)c3ccc([nH]3)c2-c2ccccc2)C(N2CCCCC2)=C1` has what Activity?
0.16 10^4/M/cm
